Target: Signal transducer and activator of transcription 3 (Homo sapiens) (UniProt P40763)
Experiment: STAT3 activation reporter response, dose response, cell-based (AID 1398)
Active and inactive are the calls of the source. The rule behind the calls is not given here.
The reply should be one of these categories: active, inactive

# example entries with known answers
[[record]]
compound = "NNc1ncnc2sc3c(c12)CCC3"
label = "inactive"

[[record]]
compound = "COc1ccc(CN2CCN(S(=O)(=O)c3ccc(C)cc3)CC2)cc1Br"
label = "active"

[[record]]
compound = "O=C(c1cc[n+]([O-])cc1)N1CCc2c([nH]c3ccccc23)C1c1ccccc1Cl (stereo not drawn)"
label = "active"

[[record]]
compound = "O=C(Cc1cccs1)Nc1ccccn1"
label = "active"

[[record]]
compound = "COc1cccc(-c2nc(N3CCCCC3C)c3ccccc3n2)c1O (stereo not drawn)"
label = "inactive"

[[record]]
compound = "COCCNC(=O)C(=O)NNC(=O)c1ccccc1OC"
label = "inactive"

[[record]]
compound = "Cn1nc(-c2ccc(Cl)cc2)c2cc(C(=O)NCCCN3CCOCC3)sc21"
label = "inactive"

[[record]]
compound = "CCc1cc2c(NCCC(=O)O)nc(C)nc2s1"
label = "inactive"

[[record]]
compound = "CCC(CC)NC(=O)Cc1ccccc1[N+](=O)[O-]"
label = "inactive"

[[record]]
compound = "COCCCNC(=O)c1cc2c(-c3ccc(Cl)cc3)nn(C)c2s1"
label = "inactive"


Problem: // outcome(item) with item = "Nc1ccccc1Sc1nc2ccccc2[nH]1"
Solution: inactive

Problem: // outcome(item) with item = "CN1C(=O)/C(=C\c2cc(Br)cs2)c2ccccc21"
Solution: active
